- System: Enterococcus faecalis (ATCC14506)
- assay-info: Microtitre plate assay, IC90 determination
- Assay type: cell-based
- stated-conditions: 90% inhibitory concentration for bacterial growth, 37° C., resazurin fluorescence, read-out: IC90 (μg/ml) EFA 14506
The entries below are paired with their reported IC90.
observed-property: IC90 (µg/mL)

> print(dat)
                                    molecule  scale.unit  value.reported
 1  COc1nc2c(C(O)(CCN(C)C)c3cc(F)cc(F)c3)cc(-c3cccnc3)cc2cc1-c1ccccc1 (stereo not drawn) [Compound 64]       µg/mL            10.5
 2  COc1nc2cccc(C(O)(CCN(C)C)c3cccc4ccccc34)c2cc1-c1ccccc1 (stereo not drawn) [Compound 2]       µg/mL             8.2
 3  COc1nc2c(C(O)(CCN(C)C)c3cc(F)cc(F)c3)cc(Br)cc2cc1Cc1ccccc1 (stereo not drawn) [Compound 12]       µg/mL            10.8
 4  CN(C)CCC(O)(c1cccs1)c1cc(Br)cc2cc(Cc3ccccc3)c(N(C)C)nc12 (stereo not drawn) [Compound 46]       µg/mL            10.5
 5  CN(C)CCC(O)(c1ccccc1)c1cc(Br)cc2cc(Cc3ccccc3)c(NCCC(c3ccccc3)c3ccccc3)nc12 (stereo not drawn) [Compound 59]       µg/mL            54.4
 6  CN(C)CCC(O)(c1cccc2ccccc12)c1cc(Br)cc2cc(Cc3ccccc3)c(-n3ccnc3)nc12 (stereo not drawn) [Compound 24]       µg/mL            11.8
 7  COc1nc2c(C(O)(CCN(C)C)c3cc(F)cc(F)c3)cc(Br)cc2cc1-c1ccccc1 (stereo not drawn) [Compound 9]       µg/mL            11.8
 8  COc1nc2cccc(C(O)(CCN(C)C)c3cc(F)cc(F)c3)c2cc1-c1ccccc1 (stereo not drawn) [Compound 1]       µg/mL            11.3
 9  CN(C)CCC(O)(c1cc(F)cc(F)c1)c1cccc2nc(N(C)C)c(-c3ccccc3)cc12 (stereo not drawn) [Compound 45]       µg/mL            10.3
10  CN(C)CCC(O)(c1cccc2ccccc12)c1cc(Br)cc2cc(Cc3ccccc3)c(N3CCN(c4n[nH]c5ccccc45)CC3)nc12 (stereo not drawn) [Compound 26]       µg/mL            14.5
11  COc1nc2c(C(O)(CCN(C)C)c3ccccc3)cc(Br)cc2cc1Cc1ccccc1 (stereo not drawn) [Compound 8]       µg/mL            11.3
12  CN(C)CCC(O)(c1cccc2ccccc12)c1cc(Br)cc2cc(-c3ccccc3)c(-n3cncn3)nc12 (stereo not drawn) [Compound 33]       µg/mL              46

---

- Tested on: Streptococcus pneumoniae (ATCC6305)
- assay-info: Microtitre plate assay, IC90 determination
- Format: cell-based
- stated-conditions: 90% inhibitory concentration for bacterial growth, 37° C., resazurin fluorescence, read-out: IC90 (μg/ml) SPN 6305
The entries below are paired with their reported IC90.
observed-property: IC90 (µg/mL)

> print(dat)
                                   molecule  value.reported
1  COc1nc2c(C(O)(CCN(C)C)c3ccccc3)cc(Br)cc2cc1Cc1ccccc1 (stereo not shown)            11.3
2  CN(C)CCC(O)(c1cc(F)cc(F)c1)c1cc(Br)cc2cc(-c3ccccc3)c(-n3ccnc3)nc12 (stereo not shown)            12.6
3  COc1nc2cccc(C(O)(CCN(C)C)c3cc4ccccc4o3)c2cc1-c1ccccc1 (stereo not shown)            11.4
4  COc1cc(-c2ccccc2)c2cc(C(O)(CCN(C)C)c3ccco3)ccc2n1 (stereo not shown)            10.1
